Task for the reader: assign each of the following compounds its reported viability, T/C.
# Tested on: DU-145 multicell spheroids with HUVEC/MSC, viability
# procedure-summary: Anticancer human tumor DU-145 cell line growth inhibition [IpAb]
# conditions-used: second compound 0.0316 µM; first compound 0.1 µM; active compounds read low
Kindly answer with a numeric value in %, unit omitted.

### Prompt What viability, T/C appears in the records for this compound with DU-145 multicell spheroids with HUVEC/MSC, viability? Cn1ncc(Cl)c1-c1cc(C(=O)NC(CN)Cc2cccc(F)c2)sc1Cl (configuration not stated) + CCN1CCN(Cc2ccc(Nc3ncc(F)c(-c4cc(F)c5nc(C)n(C(C)C)c5c4)n3)nc2)CC1
### Response 48.9

### Prompt Record: CC(C)n1nc(-c2ccc3oc(N)nc3c2)c2c(N)ncnc21 + CCN1CCN(Cc2ccc(Nc3ncc(F)c(-c4cc(F)c5nc(C)n(C(C)C)c5c4)n3)nc2)CC1
### Response 8.9

### Prompt Record: CCCS(=O)(=O)Nc1ccc(F)c(C(=O)c2c[nH]c3ncc(-c4ccc(Cl)cc4)cc23)c1F + CCN1CCN(Cc2ccc(Nc3ncc(F)c(-c4cc(F)c5nc(C)n(C(C)C)c5c4)n3)nc2)CC1
### Response 107

### Prompt Record: CC1(C)CCC(CN2CCN(c3ccc(C(=O)NS(=O)(=O)c4ccc(NCC5CCOCC5)c([N+](=O)[O-])c4)c(Oc4cnc5[nH]ccc5c4)c3)CC2)=C(c2ccc(Cl)cc2)C1 + CCN1CCN(Cc2ccc(Nc3ncc(F)c(-c4cc(F)c5nc(C)n(C(C)C)c5c4)n3)nc2)CC1
### Response 101

### Prompt Record: C=CC(=O)N1CCN(c2nc(=O)n(-c3c(C)ccnc3C(C)C)c3nc(-c4c(O)cccc4F)c(F)cc23)C(C)C1 (configuration not stated) + CCN1CCN(Cc2ccc(Nc3ncc(F)c(-c4cc(F)c5nc(C)n(C(C)C)c5c4)n3)nc2)CC1
### Response 95

### Prompt Record: C=CCn1c(=O)c2cnc(Nc3ccc(N4CCN(C)CC4)cc3)nc2n1-c1cccc(C(C)(C)O)n1 + CCN1CCN(Cc2ccc(Nc3ncc(F)c(-c4cc(F)c5nc(C)n(C(C)C)c5c4)n3)nc2)CC1
### Response 47.6

### Prompt Record: Cc1nc(NC(=O)N2CCCC2C(N)=O)sc1-c1ccnc(C(C)(C)C(F)(F)F)c1 (configuration not stated) + CCN1CCN(Cc2ccc(Nc3ncc(F)c(-c4cc(F)c5nc(C)n(C(C)C)c5c4)n3)nc2)CC1
### Response 45.8

---

Task for the reader: assign each of the following compounds its reported viability, T/C.
# Test system: DU-145 multicell spheroids with HUVEC/MSC, viability
# procedure-summary: Anticancer human tumor DU-145 cell line growth inhibition [IpAb];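 further: spheroids exposed to agents for seven days before measurement; percent of DMSO vehicle control viability so 100% = untreated level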
# conditions-used: second compound 1 µM; first compound 0.1 µM; active compounds read low
Kindly answer with a numeric value in %, unit omitted.

### Prompt # lookup: viability, T/C of COc1c(OCCCN2CCOCC2)ccc2c3n(c(=NC(=O)c4cnc(N)nc4)nc12)CCN3 + CCN1CCN(Cc2ccc(Nc3ncc(F)c(-c4cc(F)c5nc(C)n(C(C)C)c5c4)n3)nc2)CC1
### Response 25.7

### Prompt Record: Cn1ncc(Cl)c1-c1cc(C(=O)NC(CN)Cc2cccc(F)c2)sc1Cl (stereo not given) + CC(C)NCC(C(=O)N1CCN(c2ncnc3c2C(C)CC3O)CC1)c1ccc(Cl)cc1
### Response 32.6

### Prompt Record: C=CC(=O)N1CCN(c2nc(=O)n(-c3c(C)ccnc3C(C)C)c3nc(-c4c(O)cccc4F)c(F)cc23)C(C)C1 (stereo not given) + CC(C)NCC(C(=O)N1CCN(c2ncnc3c2C(C)CC3O)CC1)c1ccc(Cl)cc1
### Response 35.5

### Prompt Record: Cn1nccc1Nc1nccc(-c2ccn(C(CO)c3ccc(Cl)c(F)c3)c(=O)c2)n1 (stereo not given) + CC(C)NCC(C(=O)N1CCN(c2ncnc3c2C(C)CC3O)CC1)c1ccc(Cl)cc1
### Response 24.6

### Prompt Record: Cc1nc(NC(=O)N2CCCC2C(N)=O)sc1-c1ccnc(C(C)(C)C(F)(F)F)c1 (stereo not given) + CCN1CCN(Cc2ccc(Nc3ncc(F)c(-c4cc(F)c5nc(C)n(C(C)C)c5c4)n3)nc2)CC1
### Response 55

---

Task for the reader: assign each of the following compounds its reported viability, T/C.
# System: DU-145 multicell spheroids with HUVEC/MSC, viability
# procedure-summary: Anticancer human tumor DU-145 cell line growth inhibition [IpAb];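 further: spheroids exposed to agents for seven days before measurement; percent of DMSO vehicle control viability so 100% = untreated level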
# conditions-used: second compound 3.16 µM; first compound 10 µM; active compounds read low
Kindly answer with a numeric value in %, unit omitted.

### Prompt # lookup: viability, T/C of CC1(C)CCC(CN2CCN(c3ccc(C(=O)NS(=O)(=O)c4ccc(NCC5CCOCC5)c([N+](=O)[O-])c4)c(Oc4cnc5[nH]ccc5c4)c3)CC2)=C(c2ccc(Cl)cc2)C1 + CC(C)NCC(C(=O)N1CCN(c2ncnc3c2C(C)CC3O)CC1)c1ccc(Cl)cc1
### Response 5.88

### Prompt Record: C=CC(=O)N1CCN(c2nc(=O)n(-c3c(C)ccnc3C(C)C)c3nc(-c4c(O)cccc4F)c(F)cc23)C(C)C1 (configuration not stated) + CC(C)NCC(C(=O)N1CCN(c2ncnc3c2C(C)CC3O)CC1)c1ccc(Cl)cc1
### Response 20.7

### Prompt Record: C=CCn1c(=O)c2cnc(Nc3ccc(N4CCN(C)CC4)cc3)nc2n1-c1cccc(C(C)(C)O)n1 + CC(C)NCC(C(=O)N1CCN(c2ncnc3c2C(C)CC3O)CC1)c1ccc(Cl)cc1
### Response 10.4

### Prompt Record: Cc1nc(NC(=O)N2CCCC2C(N)=O)sc1-c1ccnc(C(C)(C)C(F)(F)F)c1 (configuration not stated) + CC(C)NCC(C(=O)N1CCN(c2ncnc3c2C(C)CC3O)CC1)c1ccc(Cl)cc1
### Response 5.66

### Prompt Record: Cn1ncc(Cl)c1-c1cc(C(=O)NC(CN)Cc2cccc(F)c2)sc1Cl (configuration not stated) + CC(C)NCC(C(=O)N1CCN(c2ncnc3c2C(C)CC3O)CC1)c1ccc(Cl)cc1
### Response 0.86

### Prompt Record: Cn1nccc1Nc1nccc(-c2ccn(C(CO)c3ccc(Cl)c(F)c3)c(=O)c2)n1 (configuration not stated) + CC(C)NCC(C(=O)N1CCN(c2ncnc3c2C(C)CC3O)CC1)c1ccc(Cl)cc1
### Response 36.8

### Prompt Record: CCCS(=O)(=O)Nc1ccc(F)c(C(=O)c2c[nH]c3ncc(-c4ccc(Cl)cc4)cc23)c1F + CC(C)NCC(C(=O)N1CCN(c2ncnc3c2C(C)CC3O)CC1)c1ccc(Cl)cc1
### Response 20.3

---

# Test system: DU-145 multicell spheroids with HUVEC/MSC, viability
# procedure-summary: Anticancer human tumor DU-145 cell line growth inhibition [IpAb];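 further: spheroids exposed to agents for seven days before measurement; percent of DMSO vehicle control viability so 100% = untreated level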
# conditions-used: second compound 0.1 µM; first compound 0.00949 µM; active compounds read low
result-type: viability, T/C (%)
Kindly answer with a numeric value in %, unit omitted.

### Prompt # lookup: viability, T/C of CC(C)(C)c1cnc(CSc2cnc(NC(=O)C3CCNCC3)s2)o1 + CC(C)NCC(C(=O)N1CCN(c2ncnc3c2C(C)CC3O)CC1)c1ccc(Cl)cc1
### Response 89.1

### Prompt Record: Cn1cnc2c(F)c(Nc3ccc(Br)cc3Cl)c(C(=O)NOCCO)cc21 + CC(C)NCC(C(=O)N1CCN(c2ncnc3c2C(C)CC3O)CC1)c1ccc(Cl)cc1
### Response 64.7

### Prompt Record: CC(=O)c1c(C)c2cnc(Nc3ccc(N4CCNCC4)cn3)nc2n(C2CCCC2)c1=O + CC(C)NCC(C(=O)N1CCN(c2ncnc3c2C(C)CC3O)CC1)c1ccc(Cl)cc1
### Response 83.4

### Prompt Record: Cn1cnc2c(F)c(Nc3ccc(Br)cc3Cl)c(C(=O)NOCCO)cc21 + CCN1CCN(Cc2ccc(Nc3ncc(F)c(-c4cc(F)c5nc(C)n(C(C)C)c5c4)n3)nc2)CC1
### Response 67.4

### Prompt Record: CC(=O)c1c(C)c2cnc(Nc3ccc(N4CCNCC4)cn3)nc2n(C2CCCC2)c1=O + CCN1CCN(Cc2ccc(Nc3ncc(F)c(-c4cc(F)c5nc(C)n(C(C)C)c5c4)n3)nc2)CC1
### Response 77.9

### Prompt Record: CC(C)(C)c1cnc(CSc2cnc(NC(=O)C3CCNCC3)s2)o1 + CCN1CCN(Cc2ccc(Nc3ncc(F)c(-c4cc(F)c5nc(C)n(C(C)C)c5c4)n3)nc2)CC1
### Response 87.6

---

# System: DU-145 multicell spheroids with HUVEC/MSC, viability
# procedure-summary: Anticancer human tumor DU-145 cell line growth inhibition [IpAb];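 further: spheroids exposed to agents for seven days before measurement; percent of DMSO vehicle control viability so 100% = untreated level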
# conditions-used: second compound 1 µM; first compound 1 µM; active compounds read low
Just a reminder that ties go to 0: only viability, T/C strictly below 60% counts as 1.

### Prompt viability, T/C under 60%? Item: CCCS(=O)(=O)Nc1ccc(F)c(C(=O)c2c[nH]c3ncc(-c4ccc(Cl)cc4)cc23)c1F + CCN1CCN(Cc2ccc(Nc3ncc(F)c(-c4cc(F)c5nc(C)n(C(C)C)c5c4)n3)nc2)CC1
### Response 0

### Prompt Record: C=CCn1c(=O)c2cnc(Nc3ccc(N4CCN(C)CC4)cc3)nc2n1-c1cccc(C(C)(C)O)n1 + CCN1CCN(Cc2ccc(Nc3ncc(F)c(-c4cc(F)c5nc(C)n(C(C)C)c5c4)n3)nc2)CC1
### Response 1

### Prompt Record: CC1(C)CCC(CN2CCN(c3ccc(C(=O)NS(=O)(=O)c4ccc(NCC5CCOCC5)c([N+](=O)[O-])c4)c(Oc4cnc5[nH]ccc5c4)c3)CC2)=C(c2ccc(Cl)cc2)C1 + CCN1CCN(Cc2ccc(Nc3ncc(F)c(-c4cc(F)c5nc(C)n(C(C)C)c5c4)n3)nc2)CC1
### Response 0

### Prompt Record: C=CC(=O)N1CCN(c2nc(=O)n(-c3c(C)ccnc3C(C)C)c3nc(-c4c(O)cccc4F)c(F)cc23)C(C)C1 (stereo not given) + CC(C)NCC(C(=O)N1CCN(c2ncnc3c2C(C)CC3O)CC1)c1ccc(Cl)cc1
### Response 1

### Prompt Record: C=CCn1c(=O)c2cnc(Nc3ccc(N4CCN(C)CC4)cc3)nc2n1-c1cccc(C(C)(C)O)n1 + CC(C)NCC(C(=O)N1CCN(c2ncnc3c2C(C)CC3O)CC1)c1ccc(Cl)cc1
### Response 1
